Target: PPARδ (Homo sapiens, UniProt Q03181)
Construct: PPARδ (aa 139 to 442)
Sequence (Q03181 139-441 limits assumed): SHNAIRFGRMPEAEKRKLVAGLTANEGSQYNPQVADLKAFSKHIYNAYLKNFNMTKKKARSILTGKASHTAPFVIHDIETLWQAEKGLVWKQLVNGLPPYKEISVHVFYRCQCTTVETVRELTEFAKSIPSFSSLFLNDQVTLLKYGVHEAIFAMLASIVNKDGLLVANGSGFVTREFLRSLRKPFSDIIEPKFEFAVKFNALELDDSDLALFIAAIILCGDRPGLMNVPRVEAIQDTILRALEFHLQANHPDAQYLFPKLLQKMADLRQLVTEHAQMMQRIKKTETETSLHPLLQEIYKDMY
Test Protocol: PPARδ radioligand binding assay (scintillation proximity, GST-PPARδ-LBD)
Conditions Used: GST-PPARδ-LBD fusion protein, SPA radioligand binding
Reported Metric: IC50

* COC(Cc1cc(OCCc2ccc(-c3ccc(C(F)(F)F)cc3)nc2C)c2ccccc2c1)C(=O)O (racemic) [Example 4] | 295 nM
* CCCC(c1ccc(-c2cccc(C(F)(F)F)c2)nc1C)N(C)c1ccc(OCC(=O)O)c2ccccc12 (racemic) [Example 3] | 65 nM
* Cc1nc(-c2ccc(C(F)(F)F)cc2)ccc1COc1ccc(CCC(=O)O)c2c1CCCC2 [Example 5] | 106 nM

====

Target: PPARγ (Mus musculus, UniProt P37238)
Construct: PPARγ (aa 174 to 476)
Sequence (P37238 204-505): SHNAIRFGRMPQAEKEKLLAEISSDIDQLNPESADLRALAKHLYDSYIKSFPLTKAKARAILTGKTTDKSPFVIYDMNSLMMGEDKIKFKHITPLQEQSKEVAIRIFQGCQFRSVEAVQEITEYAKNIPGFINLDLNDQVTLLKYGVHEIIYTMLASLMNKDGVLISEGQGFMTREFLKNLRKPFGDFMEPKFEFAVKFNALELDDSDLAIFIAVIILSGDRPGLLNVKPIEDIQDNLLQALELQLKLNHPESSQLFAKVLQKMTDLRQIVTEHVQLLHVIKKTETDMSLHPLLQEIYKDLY
Test Protocol: PPARγ radioligand binding assay (scintillation proximity, GST-PPARγ-LBD)
Conditions Used: GST-PPARγ-LBD fusion protein, SPA radioligand binding
pIC50: −log10 of the molar value.
Reported Metric: pIC50

• COC(Cc1cc(OCCc2ccc(-c3ccc(C(F)(F)F)cc3)nc2C)c2ccccc2c1)C(=O)O (racemic) = < 5.00
• Cc1nc(-c2ccc(C(F)(F)F)cc2)ccc1COc1ccc(CCC(=O)O)c2c1CCCC2 = < 5.00
• CCCC(c1ccc(-c2cccc(C(F)(F)F)c2)nc1C)N(C)c1ccc(OCC(=O)O)c2ccccc12 (racemic) = < 5.00
